# TARGET_OR_TEST_SYSTEM: IRE1α (ERN1) (Homo sapiens)
# ASSAY: LanthaScreen Eu kinase binding assay, IRE1α
# SETTINGS: read-out: IC50 (Kinase), LanthaScreen kinase binding/displacement
EXPERIMENTAL_ENDPOINT: IC50

compound CCOC(=O)CCc1c(C)n(C(=O)c2ccccc2)c2ccc(Br)cc12 , IC50 observed: > 50 µM

* * *

# TARGET_OR_TEST_SYSTEM: phosphorylated IRE1α (p-IRE1α) (Homo sapiens, UniProt O75460)
# Construct: Human IRE1α kinase and RNase domain (residues 547–977) was subcloned into pLIB plasmid; His tag (with TEV cleavage site) (N, cleaved yes); made in house; host or cells: Sf9 insect cells, baculovirus (Bac-to-Bac)
# Sequence (O75460 547-977): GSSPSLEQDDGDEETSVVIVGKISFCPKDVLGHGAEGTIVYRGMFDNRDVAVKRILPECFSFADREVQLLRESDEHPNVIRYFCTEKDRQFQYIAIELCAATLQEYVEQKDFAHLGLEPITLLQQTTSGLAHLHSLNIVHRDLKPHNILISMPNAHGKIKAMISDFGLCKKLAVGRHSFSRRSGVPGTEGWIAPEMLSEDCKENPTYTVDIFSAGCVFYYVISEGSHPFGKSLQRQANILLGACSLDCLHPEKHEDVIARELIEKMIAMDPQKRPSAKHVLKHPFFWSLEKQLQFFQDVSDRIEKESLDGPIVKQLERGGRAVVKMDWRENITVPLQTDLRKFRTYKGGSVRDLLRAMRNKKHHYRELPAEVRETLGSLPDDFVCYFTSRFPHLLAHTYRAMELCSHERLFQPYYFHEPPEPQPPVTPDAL
# ASSAY: FRET-based IRE1α RNase activity assay, phosphorylated IRE1α
# Assay type: biochemical
# SETTINGS: p-IRE1α IC50, FRET assay, RNase activity; mean (± SEM)
EXPERIMENTAL_ENDPOINT: IC50 (µM)
Report only the number, with the unit µM understood.

Entry COc1ccc2c(c1)c(CCC(=O)O)c(C)n2C(=O)c1ccc(S(=O)(=O)F)cc1 [IA06] ; IC50 = 7.79

* * *

# TARGET_OR_TEST_SYSTEM: phosphorylated IRE1α (p-IRE1α) (Homo sapiens, UniProt O75460)
# Construct: Human IRE1α kinase and RNase domain (residues 547–977) was subcloned into pLIB plasmid; His tag (with TEV cleavage site) (N, cleaved yes); made in house; host or cells: Sf9 insect cells, baculovirus (Bac-to-Bac)
# ASSAY: FRET-based IRE1α RNase activity assay, phosphorylated IRE1α
# Assay type: biochemical
# SETTINGS: FRET assay; read-out: p-IRE1α IC50 (RNase activity)
EXPERIMENTAL_ENDPOINT: IC50
# do not omit the unit; it follows the number

Below: 2 compounds and their reported IC50.
{"columns": ["LINE_NOTATION", "EXPERIMENTAL_ENDPOINT", "RESULT_VALUE"],
 "data": [
  ["COc1ccc2c(c1)c(CCC(=O)O)c(C)n2C(=O)c1ccccc1", "IC50", "30 nM"],
  ["Cc1c(CCC(=O)O)c2cc(Br)ccc2n1C(=O)c1ccccc1", "IC50", "9 nM"]
]}

Read the next record carefully.
GET /value?item= COc1ccc2c(c1)c(CCC(=O)O)c(C)n2C(=O)c1cc2ccccc2s1 &field=IC50 returns 1970 nM

* * *

# TARGET_OR_TEST_SYSTEM: phosphorylated IRE1α (p-IRE1α) (Homo sapiens, UniProt O75460)
# Construct: Human IRE1α kinase and RNase domain (residues 547–977) was subcloned into pLIB plasmid; His tag (with TEV cleavage site) (N, cleaved yes); made in house; host or cells: Sf9 insect cells, baculovirus (Bac-to-Bac)
# ASSAY: FRET-based IRE1α RNase activity assay, phosphorylated IRE1α
# Assay type: biochemical
# SETTINGS: p-IRE1a; mean; Supplementary Fig. 2b, 2c; read-out: IC50, mean
Label 1 when IC50 is strictly below 300 nM; at or above that, label 0.

Please review the following examples before continuing.
{"columns": ["COMPOUND", "TARGET_OR_TEST_SYSTEM", "GROUP_LABEL"],
 "data": [
  ["Cc1c(CCC(=O)O)c2ccccc2n1C(=O)c1cccc(C#N)c1 [IA41]", "phosphorylated IRE1α (p-IRE1α) (Homo sapiens, UniProt O75460)", 0],
  ["Cc1c(CCC(=O)O)c2ccccc2n1C(=O)c1cccs1 [IA42]", "phosphorylated IRE1α (p-IRE1α) (Homo sapiens, UniProt O75460)", 0],
  ["Cc1c(CCC(=O)O)c2cc(F)ccc2n1C(=O)c1cccc(C#N)c1 [IA47]", "phosphorylated IRE1α (p-IRE1α) (Homo sapiens, UniProt O75460)", 0]
]}

Given Cc1c(CCC(=O)O)c2cc(Cl)ccc2n1C(=O)c1cccc(C#N)c1 [IA63] , is recorded IC50 strictly lower than 300 nM?
1

For Cc1c(CCC(=O)O)c2cc(F)ccc2n1C(=O)c1cccs1 [IA48] , is the recorded IC50 below the cut-off of 300 nM?
0

Please check: IC50 for Cc1c(CCC(=O)O)c2cc(Cl)ccc2n1C(=O)c1cccs1 [IA60] , strictly under 300 nM or not?
1

Hello, I'm reviewing records and need to know if IC50 of Cc1c(CCC(=O)O)c2cc(Br)ccc2n1C(=O)c1cccs1 [IA44] is below 300 nM. Could you check?
1

* * *

# TARGET_OR_TEST_SYSTEM: IRE1α (ERN1) (Homo sapiens, UniProt O75460)
# Sequence (O75460 19-977): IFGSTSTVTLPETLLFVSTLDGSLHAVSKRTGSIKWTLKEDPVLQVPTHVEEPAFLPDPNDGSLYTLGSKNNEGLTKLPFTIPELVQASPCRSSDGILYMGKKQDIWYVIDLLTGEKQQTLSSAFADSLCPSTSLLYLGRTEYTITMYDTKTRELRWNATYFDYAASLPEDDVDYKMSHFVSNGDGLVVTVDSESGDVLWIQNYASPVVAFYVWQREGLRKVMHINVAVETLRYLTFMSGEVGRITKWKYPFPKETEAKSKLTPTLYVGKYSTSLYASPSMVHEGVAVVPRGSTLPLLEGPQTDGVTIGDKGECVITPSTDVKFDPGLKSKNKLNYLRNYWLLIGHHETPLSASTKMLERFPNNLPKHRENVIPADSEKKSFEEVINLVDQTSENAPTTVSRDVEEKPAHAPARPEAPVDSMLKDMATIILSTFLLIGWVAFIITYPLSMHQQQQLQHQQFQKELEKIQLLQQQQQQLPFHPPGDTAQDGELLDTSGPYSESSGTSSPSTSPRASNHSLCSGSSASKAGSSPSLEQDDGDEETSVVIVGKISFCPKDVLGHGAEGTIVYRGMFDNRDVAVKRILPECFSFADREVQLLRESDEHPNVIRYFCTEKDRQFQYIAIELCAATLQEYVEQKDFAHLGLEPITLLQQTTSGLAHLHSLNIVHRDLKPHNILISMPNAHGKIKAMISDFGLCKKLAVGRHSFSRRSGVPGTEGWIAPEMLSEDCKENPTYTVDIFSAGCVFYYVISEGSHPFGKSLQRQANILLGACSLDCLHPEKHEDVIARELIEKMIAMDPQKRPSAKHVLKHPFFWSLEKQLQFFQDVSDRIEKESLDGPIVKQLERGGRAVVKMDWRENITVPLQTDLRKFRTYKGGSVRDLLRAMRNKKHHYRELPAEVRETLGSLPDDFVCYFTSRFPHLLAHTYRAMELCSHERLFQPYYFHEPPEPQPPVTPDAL
# ASSAY: LanthaScreen Eu kinase binding assay, IRE1α
# SETTINGS: Conc. 50000 nM; duplicates; read-out: IRE1a Kinase Displacement(%)
Each entry gets Not fulfilled if its inhibition at 50 µM stays under 60%, and Fulfilled if its inhibition at 50 µM is 60% or above.

Observe how each entry below is paired with its result.
{"columns": ["COMPOUND", "GROUP_LABEL"],
 "data": [
  ["COc1ccc2c(c1)c(CCC(=O)O)c(C)n2C(=O)c1cc2ccccc2s1 [IA10]", "Not fulfilled"],
  ["COc1ccc2c(c1)c(CCC(=O)O)c(C)n2C(=O)c1ccc(S(=O)(=O)F)cc1 [IA06]", "Not fulfilled"],
  ["Cc1c(CCC(=O)O)c2cc(Br)ccc2n1C(=O)c1ccccc1 [IA107]", "Fulfilled"]
]}

Identify whether the reported inhibition at 50 µM of the following compound is 60% or greater: COc1ccc2c(c1)c(CCC(=O)O)c(C)n2C(=O)c1ccccc1 [IA64]
Fulfilled

For this compound, is measured inhibition at 50 µM 60% or higher? COc1ccc2c(c1)c(CCC(=O)O)c(C)n2C(=O)c1ccc(Cl)cc1 [IA01]
Fulfilled

* * *

# TARGET_OR_TEST_SYSTEM: phosphorylated IRE1α (p-IRE1α) (Homo sapiens, UniProt O75460)
# Construct: Human IRE1α kinase and RNase domain (residues 547–977) was subcloned into pLIB plasmid; His tag (with TEV cleavage site) (N, cleaved yes); made in house; host or cells: Sf9 insect cells, baculovirus (Bac-to-Bac)
# ASSAY: FRET-based IRE1α RNase activity assay, phosphorylated IRE1α
# Type: biochemical
# SETTINGS: FRET assay at 50 μM; mean (± SEM); read-out: p-IRE1α inhibition%
EXPERIMENTAL_ENDPOINT: inhibition at 50 µM

Record for COc1ccc2c(c1)c(Cc1ccc(O)cc1)c(C)n2C(=O)c1ccc(Cl)cc1 under target or system phosphorylated IRE1α (p-IRE1α) (Homo sapiens, UniProt O75460): inhibition at 50 µM reported as < 30%

Log: phosphorylated IRE1α (p-IRE1α) (Homo sapiens, UniProt O75460), compound COC(=O)CCc1c(C)n(C(=O)c2ccc(Cl)cc2)c2ccc(OC)cc12 , inhibition at 50 µM = < 30%

Reported inhibition at 50 µM (phosphorylated IRE1α (p-IRE1α) (Homo sapiens, UniProt O75460)) for entry COC(=O)CCCc1c(C)n(C(=O)c2ccc(Cl)cc2)c2ccc(OC)cc12 is < 30%

Lab note: compound COc1ccc2c(c1)c(CC(=O)OC(C)C)c(C)n2C(=O)c1ccc(Cl)cc1 tested on phosphorylated IRE1α (p-IRE1α) (Homo sapiens, UniProt O75460); recorded inhibition at 50 µM was < 30%

inhibition at 50 µM for phosphorylated IRE1α (p-IRE1α) (Homo sapiens, UniProt O75460) with input COc1ccc2c(c1)c(CCC(=O)O)c(C)n2C(=O)c1ccc(Cl)cc1 equals 99.3%

* * *

# TARGET_OR_TEST_SYSTEM: phosphorylated IRE1α (p-IRE1α) (Homo sapiens, UniProt O75460)
# Construct: Human IRE1α kinase and RNase domain (residues 547–977) was subcloned into pLIB plasmid; His tag (with TEV cleavage site) (N, cleaved yes); made in house; host or cells: Sf9 insect cells, baculovirus (Bac-to-Bac)
# ASSAY: FRET-based IRE1α RNase activity assay, phosphorylated IRE1α
# Type: biochemical
# SETTINGS: FRET assay, RNase activity; mean (± SEM); read-out: p-IRE1α IC50
Please respond with label 1 when measured IC50 is strictly beneath 1 µM, and with label 0 in all other cases.

Regarding COc1ccc2[nH]c(C)c(CCC(=O)O)c2c1 , kindly confirm whether its IC50 is beneath 1 µM.
label 0

For this compound, is IC50 lower than 1 µM? COc1ccc2c(c1)c(CCC(=O)O)c(C)n2C(=O)N1CCCCC1
label 0

Is the reported IC50 for Cc1c(CCC(=O)O)c2cc(-c3ccc(C(N)=O)cc3)ccc2n1C(=O)c1ccccc1 strictly below 1 µM?
label 0

Check if IC50 falls below 1 µM for COc1ncc(-c2ccc3c(c2)c(CCC(=O)O)c(C)n3C(=O)c2ccccc2)c(OC)n1 .
label 0

Quick check: does Cc1c(CCC(=O)O)c2cc(C(C)C)ccc2n1C(=O)c1ccccc1 have IC50 under 1 µM?
label 1

Please state whether IC50 is below 1 µM for COc1ccc2c(c1)c(CCC(=O)O)c(C)n2C(=O)c1ccc(-c2ccccc2)cc1
label 0

Does the reported IC50 of the following compound sit strictly below 1 µM? COc1ccc2c(c1)c(CCC(=O)O)c(C)n2C(=O)c1cccs1
label 1

Below 1 µM on IC50? Entry COc1ccc2c(c1)c(CCC(=O)O)c(C)n2C(=O)c1ccc(N(C)C)cc1
label 1

Field: below-cutoff. Rule: recorded IC50 strictly less than 1 µM. Subject: CC(=O)c1ccc(-c2ccc3c(c2)c(CCC(=O)O)c(C)n3C(=O)c2ccccc2)s1
label 0
